SUBJECT OF TEST: human CD33 variant Y50Q (human, UniProt P20138 18-364)
Sequence (P20138 18-364 Y50Q limits assumed): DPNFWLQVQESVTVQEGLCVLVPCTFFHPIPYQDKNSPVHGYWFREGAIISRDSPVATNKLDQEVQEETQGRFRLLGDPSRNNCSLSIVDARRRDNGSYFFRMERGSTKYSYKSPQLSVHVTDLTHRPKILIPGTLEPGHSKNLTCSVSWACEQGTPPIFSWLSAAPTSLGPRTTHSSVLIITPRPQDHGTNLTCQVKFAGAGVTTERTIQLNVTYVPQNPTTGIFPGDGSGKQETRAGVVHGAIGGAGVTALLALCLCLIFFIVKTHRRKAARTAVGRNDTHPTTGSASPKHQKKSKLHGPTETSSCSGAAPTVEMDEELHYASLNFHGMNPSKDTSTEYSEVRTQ
RUN DESCRIPTION: flow cytometry, IgG on cells expressing the mutant
Catalogue of binders with associated Mean % WT Binding

Worked examples, 2 binders total:
{"BINDER": "Refmab #2 (antibody, human IgG1, V domains shown, Tested in IgG format; human IgG1 Fc silent (PG-LALA)) VH: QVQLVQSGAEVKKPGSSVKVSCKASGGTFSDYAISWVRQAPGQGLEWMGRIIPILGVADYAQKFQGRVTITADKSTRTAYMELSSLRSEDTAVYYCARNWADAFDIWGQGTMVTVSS VL: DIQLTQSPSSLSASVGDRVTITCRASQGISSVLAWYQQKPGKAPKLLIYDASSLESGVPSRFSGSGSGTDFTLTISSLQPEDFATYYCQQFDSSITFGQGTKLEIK", "Mean % WT Binding": "113 % of WT"}
{"BINDER": "Refmab #4 (antibody, human IgG1, V domains shown, Tested in IgG format; human IgG1 Fc silent (PG-LALA)) VH: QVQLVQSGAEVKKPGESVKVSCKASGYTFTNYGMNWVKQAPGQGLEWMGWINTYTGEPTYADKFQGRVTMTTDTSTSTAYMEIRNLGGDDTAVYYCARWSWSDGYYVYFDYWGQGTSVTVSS VL: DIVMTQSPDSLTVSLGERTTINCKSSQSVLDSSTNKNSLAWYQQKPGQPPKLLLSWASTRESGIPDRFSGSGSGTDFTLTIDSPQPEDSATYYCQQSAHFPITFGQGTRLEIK", "Mean % WT Binding": "3.2 % of WT"}

The record that follows has no Mean % WT Binding shown yet.
## Input Requested read-out: Mean % WT Binding. Entry: Refmab #3 (antibody, human IgG1, V domains shown, Tested in IgG format; human IgG1 Fc silent (PG-LALA)) VH: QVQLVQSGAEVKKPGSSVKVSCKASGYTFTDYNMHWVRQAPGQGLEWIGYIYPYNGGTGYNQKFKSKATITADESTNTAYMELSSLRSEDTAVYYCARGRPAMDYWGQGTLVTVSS VL: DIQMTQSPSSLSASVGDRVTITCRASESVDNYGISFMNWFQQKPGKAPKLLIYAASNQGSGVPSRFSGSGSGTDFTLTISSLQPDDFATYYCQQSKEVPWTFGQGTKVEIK
## Output 95.4 % of WT

All figures here come from patent US20260242735A1.
